# MEASURED TARGET: recombinant human IL-17AA (Homo sapiens, UniProt Q16552)
# Sequence (Q16552 24-155): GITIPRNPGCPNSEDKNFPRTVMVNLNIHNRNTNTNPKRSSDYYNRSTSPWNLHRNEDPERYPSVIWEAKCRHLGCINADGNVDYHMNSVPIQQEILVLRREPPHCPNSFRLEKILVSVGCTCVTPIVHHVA
# TEST NAME: IL-6 release from NHDF cells, IL-17AA plus TNF-α stimulation
# Type: cell-based
# STATED CONDITIONS: NHDF cells, IL-17AA 30 pM plus TNF-α 6 pM, 24 hours, IL-6 by ELISA; read-out: IL17AA + TNF IC50 IL-6
pIC50: −log10 of the molar value.
RECORDED METRIC: pIC50

COCc1nocc1C(=O)N[C@H](C(=O)Nc1ccc(-c2c(Cl)cc[n+]([O-])c2C)c(F)c1)C1CCCCC1 ... 8.30
Cc1cc[n+]([O-])c(C)c1-c1ccc(NC(=O)C(NC(=O)c2ccc3n2CCN(C)C3)C2CCC(C)CC2)cc1 (stereo not shown) ... 7.77
CCn1nccc1C(=O)N[C@H](C(=O)Nc1ccc(-c2c(C(F)(F)F)cc[n+]([O-])c2C)cc1)[C@H]1CCCC(F)(F)C1 ... 7.96

a. CCc1nocc1C(=O)N[C@H](C(=O)Nc1ccc(-c2c(Cl)cc[n+]([O-])c2C)cc1)[C@H]1CCCC(F)(F)C1
b. Cc1c[n+]([O-])cc(C)c1-c1ccc(NC(=O)[C@@H](NC(=O)c2ccnn2C2CCC2)C2CCCCCC2)cc1
Consider a and b . Which of these has its pIC50 at a higher number? Respond with the label that goes with your answer.
a

I. Cn1nccc1C(=O)N[C@H](C(=O)Nc1ccc(-c2c[n+]([O-])ccc2Cl)c(F)c1)C1CCCCC1
II. Cc1c(-c2ccc(NC(=O)[C@@H](NC(=O)c3ccnn3C)C3CCC(F)(F)CC3)cc2F)c(Cl)cc[n+]1[O-]
Consider I and II . Which of these has its pIC50 at a higher number? Respond with the label that goes with your answer.
II
(II: 7.82, I: 7.24)

a. CCn1nccc1C(=O)N[C@H](C(=O)Nc1ccc(-c2c(C(F)(F)F)cc[n+]([O-])c2C)cc1)C1CCCC1
b. Cc1cc[n+]([O-])c(C)c1-c1ccc(NC(=O)[C@@H](NC(=O)c2conc2C)C2CCCC2)cc1
// select label with min value of measured pIC50 from [ a , b ] Respond with the label that goes with your answer.
b

====

# MEASURED TARGET: recombinant human IL-17AA (Homo sapiens)
# TEST NAME: IL-6 release from NHDF cells, IL-17AA plus TNF-α stimulation
# Assay type: cell-based
# STATED CONDITIONS: NHDF cells, IL-17AA 30 pM + TNF-α 6 pM, 24 hours, IL-6 by ELISA; read-out: IL17AA + TNF IC50 IL-6
pIC50: −log10 of the molar value.
RECORDED METRIC: pIC50

A. CC(=O)N1CCn2c(ccc2C(=O)N[C@H](C(=O)Nc2ccc(-c3c(C(F)(F)F)cc[n+]([O-])c3C)cc2)C2CCCCC2)C1 [Example 191]
B. CC(=O)N1CCn2c(ccc2C(=O)N[C@H](C(=O)Nc2ccc(-c3c(Cl)cc[n+]([O-])c3C)cc2)C2CCCCC2)C1 [Example 199]
C. Cc1c(-c2ccc(NC(=O)C(NC(=O)c3ccc4n3CCN(C)C4)C3CC4CC4C3)cc2F)c(Cl)cc[n+]1[O-] (stereo not drawn) [Example 203]
Kindly provide a descending ordering of the above compounds based on their pIC50. Lab note: final answer is the ordered label list.
B, A, C

Data origin: patent US12600728B2
